From: patent US10551389B2

# study_system: Mcl-1 (Homo sapiens)
# Sequence (Q07820 whole entry, species assumed): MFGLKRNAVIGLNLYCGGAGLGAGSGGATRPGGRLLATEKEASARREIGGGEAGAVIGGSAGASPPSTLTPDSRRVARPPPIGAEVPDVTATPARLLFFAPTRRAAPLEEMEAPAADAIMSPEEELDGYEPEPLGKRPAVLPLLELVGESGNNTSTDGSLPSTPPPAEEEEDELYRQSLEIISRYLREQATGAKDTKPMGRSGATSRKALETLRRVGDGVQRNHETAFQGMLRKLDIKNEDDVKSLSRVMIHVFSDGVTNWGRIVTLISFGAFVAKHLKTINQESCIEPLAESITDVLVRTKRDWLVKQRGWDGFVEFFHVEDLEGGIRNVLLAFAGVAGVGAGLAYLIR
# experiment_notes: Inhibition of Mcl-1 (disruption of Mcl-1/Bim interaction)
# Type: binding
# condition_details: compound at 25 μM
endpoint_label: % Inhibition (25 μM) Mcl-1 (%)
One number for each entry, in %.

Examples with their reported % Inhibition (25 μM) Mcl-1 follow.
Notebook: COc1cccc(CN(CCSc2ccccc2)Cc2ccc(S(=O)(=O)NC(=O)c3ccc(CCc4ccccn4)cc3)cc2)c1 [SZ17TA17] , % Inhibition (25 μM) Mcl-1 read as 73.9

% Inhibition (25 μM) Mcl-1 measured on O=C(NS(=O)(=O)c1ccc(CN(CCSc2ccccc2)Cc2ccc3c(c2)OCO3)cc1)c1ccc(-c2ccc(F)cc2)cc1 [SZ31TA14] = 56.2

Record Cn1cc(C(=O)C2CCCCC2)c2cc(C(=O)NS(=O)(=O)c3ccc(CN(CCSc4ccccc4)Cc4ccc(S(N)(=O)=O)cc4)cc3)ccc21 [SZ10TA40] . Reported % Inhibition (25 μM) Mcl-1: 37.2

The recorded % Inhibition (25 μM) Mcl-1 for COc1cccc(CN(CCSc2ccccc2)Cc2ccc(S(=O)(=O)NC(=O)c3ccc4c(c3)c(C(=O)C3CCCCC3)cn4C)cc2)c1 [SZ17TA40] is 25.8

Please turn your attention to the following entry.
Per the record, CCOc1ccc(-c2ccc3c(c2)c(C(=O)NS(=O)(=O)c2ccc(CN4CCN(c5ccccc5)CC4)cc2)cn3C)cc1F [SZ1TA23] has % Inhibition (25 μM) Mcl-1 of 18.7
